# System: Vero cells
# protocol: in vitro
# Assay type: cell-based
# reported conditions: African green monkey
Could you please mark 1 for values of CC50 below 9 µM and -1 for values at or above it?

Check out these entries, answers already filled in.
COc1cc(NC(C(=O)c2c[nH]c3c(C)c(F)ccc23)c2ccc(F)cc2OC)cc(OCCO)c1 (single isomer, unassigned) ... 1
COc1cc(NC(C(=O)c2c[nH]c3cc(OC)c(F)cc23)c2ccc(F)cc2OC)cc(OCCO)c1 (single isomer, unassigned) ... -1
COc1cc(NC(C(=O)c2c[nH]c3c(F)c(F)ccc23)c2ccc(F)cc2OC)cc(OCCO)c1 (single isomer, unassigned) ... 1

Threshold test, CC50 < 9 µM: COc1cc(NC(C(=O)c2c[nH]c3cc(OC)c(C)cc23)c2ccc(F)cc2OC)cc(OCCO)c1 (single isomer, unassigned)
-1

Threshold test, CC50 < 9 µM: COc1cc(NC(C(=O)c2c[nH]c3c(Cl)c(OC)ccc23)c2ccc(F)cc2OC)cc(OCCO)c1 (single isomer, unassigned)
1

* * *

# protocol: in vitro
# Format: cell-based
# reported conditions: African green monkey, CC50
Could you please mark true for values of CC50 below 8 µM and false for values at or above it?

COc1cc(NC(C(=O)c2c[nH]c3cc(F)ccc23)c2ccc(F)cc2OC)cc(OCCO)c1 (racemic) [Compound 1] ... false
COc1cc(NC(C(=O)c2c[nH]c3cc(F)c(F)cc23)c2ccc(F)cc2OC)cc(OCCO)c1 (single isomer, unassigned) [Compound 10A] ... false
COc1cc(NC(C(=O)c2c[nH]c3cc(OC)c(F)cc23)c2ccc(F)cc2OC)cc(OCCO)c1 (racemic) [Compound 7] ... false
COc1cc(NC(C(=O)c2c[nH]c3cc(F)c(F)cc23)c2ccc(F)cc2OC)cc(OCCO)c1 (racemic) [Compound 10] ... false
COc1cc(NC(C(=O)c2c[nH]c3c(C)c(Cl)ccc23)c2ccc(F)cc2OC)cc(OCCO)c1 (racemic) [Compound 3] ... true
COc1cc(NC(C(=O)c2c[nH]c3c(C)cc(F)cc23)c2ccc(F)cc2OC)cc(OCCO)c1 (racemic) [Compound 9] ... true
COc1cc(NC(C(=O)c2c[nH]c3cc(OC)c(F)cc23)c2ccc(F)cc2OC)cc(OCCO)c1 (single isomer, unassigned) [Compound 7A] ... false
COc1cc(NC(C(=O)c2c[nH]c3c(C)c(Cl)ccc23)c2ccc(F)cc2OC)cc(OCCO)c1 (single isomer, unassigned) [Compound 3B] ... true
COc1cc(NC(C(=O)c2c[nH]c3c(C)c(F)ccc23)c2ccc(F)cc2OC)cc(OCCO)c1 (single isomer, unassigned) [Compound 2A] ... true
COc1cc(NC(C(=O)c2c[nH]c3c(F)cc(C)cc23)c2ccc(F)cc2OC)cc(OCCO)c1 (single isomer, unassigned) [Compound 12A] ... false

Threshold test, CC50 < 8 µM: COc1cc(NC(C(=O)c2c[nH]c3c(F)c(F)ccc23)c2ccc(F)cc2OC)cc(OCCO)c1 (racemic) [Compound 5]
true

Threshold test, CC50 < 8 µM: COc1cc(NC(C(=O)c2c[nH]c3c(C)cc(F)cc23)c2ccc(F)cc2OC)cc(OCCO)c1 (single isomer, unassigned) [Compound 9A]
false

Threshold test, CC50 < 8 µM: COc1cc(NC(C(=O)c2c[nH]c3cc(Cl)ccc23)c2ccc(F)cc2OC)cc(OCCO)c1 (single isomer, unassigned)
true

* * *

# Test system: DENV-3 strain H87 prototype
# protocol: Tetravalent RT-qPCR assay Protocol B, serotype 3
# Type: cell-based
# reported conditions: Dengue virus, DENV3, 168 h, RT-qPCR serotype 3 H87, Vero cells, 7 days
Answer each item with its documented EC50.
Note: state the figure and append the unit.

Look over these answered cases.
COc1cc(NC(C(=O)c2c[nH]c3c(Cl)c(OC)ccc23)c2ccc(F)cc2OC)cc(OCCO)c1 (single isomer, unassigned) [Compound 8A] ... 29 nM
COc1cc(NC(C(=O)c2c[nH]c3c(F)c(F)ccc23)c2ccc(F)cc2OC)cc(OCCO)c1 (single isomer, unassigned) [Compound 5B] ... 50 nM

Now examine the next entry.
// field: EC50; key: COc1cc(NC(C(=O)c2c[nH]c3cc(OC)c(C)cc23)c2ccc(F)cc2OC)cc(OCCO)c1 (single isomer, unassigned) [Compound 6A] ; value = 20 nM

* * *

Answer each item with its documented CC50.
# protocol: in vitro
# Format: cell-based
# reported conditions: African green monkey, CC50
Numbers only, in µM.

COc1cc(NC(C(=O)c2c[nH]c3c(C)c(F)ccc23)c2ccc(F)cc2OC)cc(OCCO)c1 (single isomer, unassigned) ... 9.2
COc1cc(NC(C(=O)c2c[nH]c3c(C)c(OC)ccc23)c2ccc(F)cc2OC)cc(OCCO)c1 (single isomer, unassigned) [Compound 11A] ... 11

Now examine the next entry.
// field: CC50; key: COc1cc(NC(C(=O)c2c[nH]c3c(F)cc(C)cc23)c2ccc(F)cc2OC)cc(OCCO)c1 (single isomer, unassigned) [Compound 12B] ; value = 9.4

* * *

Answer each item with its documented CC50.
# protocol: in vitro
# Type: cell-based
# reported conditions: African green monkey, CC50
One number for each entry, in µM.

Look over these answered cases.
COc1cc(NC(C(=O)c2c[nH]c3c(F)c(F)ccc23)c2ccc(F)cc2OC)cc(OCCO)c1 (single isomer, unassigned) [Compound 5B] ... 12
COc1cc(NC(C(=O)c2c[nH]c3c(Cl)c(OC)ccc23)c2ccc(F)cc2OC)cc(OCCO)c1 (single isomer, unassigned) [Compound 8A] ... 9.6

Now examine the next entry.
// field: CC50; key: COc1cc(NC(C(=O)c2c[nH]c3cc(OC)c(C)cc23)c2ccc(F)cc2OC)cc(OCCO)c1 (single isomer, unassigned) [Compound 6A] ; value = 9.7

* * *

# Test system: DENV-2 16681 strain
# protocol: DENV-2 antiviral assay (eGFP-labelled virus in Vero cells)
# Assay type: cell-based, Dengue virus
# reported conditions: DENV-2 16681 eGFP, MOI 0.5, 3 days
Answer each item with its documented log10(EC50).
Could you please treat all values as log10 of EC50 in nM?

Lab note: each compound below needs its log10(EC50) filled in.
1. COc1cc(NC(C(=O)c2c[nH]c3cc(F)ccc23)c2ccc(F)cc2OC)cc(OCCO)c1 (single isomer, unassigned) [Compound 1A]
2. COc1cc(NC(C(=O)c2c[nH]c3c(F)c(F)ccc23)c2ccc(F)cc2OC)cc(OCCO)c1 (single isomer, unassigned) [Compound 5B]

0.58
0.40

Lab note: each compound below needs its log10(EC50) filled in.
1. COc1cc(NC(C(=O)c2c[nH]c3c(C)cc(F)cc23)c2ccc(F)cc2OC)cc(OCCO)c1 (single isomer, unassigned) [Compound 9A]
2. COc1cc(NC(C(=O)c2c[nH]c3cc(Cl)ccc23)c2ccc(F)cc2OC)cc(OCCO)c1 (single isomer, unassigned) [Compound 4B]
3. COc1cc(NC(C(=O)c2c[nH]c3cc(F)c(F)cc23)c2ccc(F)cc2OC)cc(OCCO)c1 (single isomer, unassigned) [Compound 10A]
4. COc1cc(NC(C(=O)c2c[nH]c3c(F)cc(C)cc23)c2ccc(F)cc2OC)cc(OCCO)c1 (single isomer, unassigned) [Compound 12A]

1: 2.80; 2: 2.58; 3: 2.76; 4: 2.97

* * *

# protocol: in vitro
# Type: cell-based
# reported conditions: African green monkey, CC50
# Method: Potential cytotoxic effects of the compounds were evaluated in uninfected Vero cells. […] Following a 2-hour incubation period at 37° C., the optical density was determined at 498 nm. Cytotoxic activity was calculated using the following formula: % cell viability=100×(ODCompound/ODCC), where ODcompound and ODCC correspond to the optical density at 498 nm of the uninfected cell cultures treated with compound and that of uninfected, untreated cell cultures, respectively. […]
measurement type: CC50 (µM)
Answers are plain numbers, in µM.

COc1cc(NC(C(=O)c2c[nH]c3cc(F)ccc23)c2ccc(F)cc2OC)cc(OCCO)c1 (single isomer, unassigned) ... 13
COc1cc(NC(C(=O)c2c[nH]c3cc(Cl)ccc23)c2ccc(F)cc2OC)cc(OCCO)c1 (single isomer, unassigned) ... 9.7
COc1cc(NC(C(=O)c2c[nH]c3c(C)c(Cl)ccc23)c2ccc(F)cc2OC)cc(OCCO)c1 (single isomer, unassigned) ... 7.6
COc1cc(NC(C(=O)c2c[nH]c3cc(OC)c(F)cc23)c2ccc(F)cc2OC)cc(OCCO)c1 (single isomer, unassigned) ... 16
COc1cc(NC(C(=O)c2c[nH]c3cc(F)c(F)cc23)c2ccc(F)cc2OC)cc(OCCO)c1 (single isomer, unassigned) [Compound 10B] ... 7.3

Now examine the next entry.
// field: CC50; key: COc1cc(NC(C(=O)c2c[nH]c3c(C)cc(F)cc23)c2ccc(F)cc2OC)cc(OCCO)c1 (single isomer, unassigned) ; value = 8.8

src = patent US10206902B2
